Origin of the recorded values: ChEMBL document CHEMBL1201862

# Tested on: IGROV-1
# TEST PROTOCOL: NCI tumour cell line growth inhibition, 48 h
Calls of active or inactive are those of the source. Cut-off read from the data, not from the text of the source: active = GI50 up to about 1.1 µM and inactive = higher.
PROPERTY MEASURED: GI50

As a guide, the following entries are already answered.
>  <COMPOUND>
CC(C)(C)c1cc(OCc2nnc(S)n2N)c(Cl)cc1OCc1nnc(S)n1N

>  <EXPERIMENTAL TARGET>
IGROV-1

>  <GI50>
44.9 µM (inactive)

$$$$
>  <COMPOUND>
CCOP(=O)(C/C(O)=C1\C(=O)C(CCCNC(=O)OC(C)(C)C)N(Cc2ccc(OC)c(OC)c2)C1=O)OCC (stereo unspecified)

>  <EXPERIMENTAL TARGET>
IGROV-1

>  <GI50>
> 100 µM (inactive)

$$$$
>  <COMPOUND>
O=C1CCCC1C(O)(C(F)(F)F)C(F)(F)F (stereo unspecified)

>  <EXPERIMENTAL TARGET>
IGROV-1

>  <GI50>
> 100 µM (inactive)

$$$$
>  <COMPOUND>
c1ccc(COc2nc3cc(C45CC6CC(CC(C6)C4)C5)ccc3[nH]2)cc1

>  <EXPERIMENTAL TARGET>
IGROV-1

>  <GI50>
13.6 µM (inactive)

$$$$
>  <COMPOUND>
O=C(O)C(C1NCCS1)N1C(=O)c2ccccc2C1=O (stereo unspecified)

>  <EXPERIMENTAL TARGET>
IGROV-1

>  <GI50>
> 100 µM (inactive)

$$$$

Let us examine a further case.
Tell me the measured GI50 of C=C(CCOC)CCC1CCCCC(=C)[C@H]1O (stereo partly specified) , please. > 100 µM (inactive)
